# tgt: T1, human TREM2 (human, UniProt Q9NZC2 19-174, limits assumed)
# T1 construct: also called triggering receptor expressed on myeloid cells 2
# T1 sequence: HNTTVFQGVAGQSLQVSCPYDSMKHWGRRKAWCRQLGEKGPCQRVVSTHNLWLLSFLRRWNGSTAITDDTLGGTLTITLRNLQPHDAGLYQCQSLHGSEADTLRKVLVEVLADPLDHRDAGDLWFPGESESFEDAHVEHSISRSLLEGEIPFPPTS
# assayText: 2nd screen 100 nM
Items are presented alongside their recorded Binding Signal (fold over 6E7 Parental antibody).
measuredParameter: Binding Signal (fold over 6E7 Parental antibody) (fold)

| binder | unitName | assayValue |
| --- | --- | --- |
| V68 (antibody, V domains shown) VH: EVQLVQSGAEVKKPGESLKISCKGSGYSFTSYWIAWVRQMPGKGLEWMGIIYPGDSDTRYSPSFQGQVTISADKSISTAYLQWSSLKASDTAMYFCARQRTFRYDSSDYFDYWGQGTLVTVSS VL: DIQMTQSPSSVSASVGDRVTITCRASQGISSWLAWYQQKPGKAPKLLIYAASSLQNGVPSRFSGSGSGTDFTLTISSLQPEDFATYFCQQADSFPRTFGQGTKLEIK | fold | 0.43 |
| V59 (antibody, V domains shown) VH: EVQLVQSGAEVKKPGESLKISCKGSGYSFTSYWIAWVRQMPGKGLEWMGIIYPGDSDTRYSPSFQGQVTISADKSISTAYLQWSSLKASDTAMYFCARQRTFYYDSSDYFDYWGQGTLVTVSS VL: DIQMTQSPSSVSASVGDRVTITCRASQGISSWLAWYQQKPGKAPKLLIYAASSLQNGVPSRFSGSGSGTDFTLTISSLQPEDFATYFCMQADSFPRTFGQGTKLEIK | fold | 0.6 |
| V8 (antibody, V domains shown) VH: EVQLVQSGAEVKKPGESLKISCKGSGYSFTSYWIAWVRQMPGKGLEWMGIIYPGDSDTKYSPSFQGQVTISADKSISTAYLQWSSLKASDTAMYFCARQRTFYYDSSDYFDYWGQGTLVTVSS VL: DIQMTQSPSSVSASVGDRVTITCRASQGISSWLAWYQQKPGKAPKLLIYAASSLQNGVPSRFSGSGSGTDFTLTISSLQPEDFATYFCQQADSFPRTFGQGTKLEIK | fold | 0.77 |
